Reference source: the RNAGym collection of RNA variant scans (doi:10.1021/acssynbio.7b00057)

B1: Pistol ribozyme (parent)
chain: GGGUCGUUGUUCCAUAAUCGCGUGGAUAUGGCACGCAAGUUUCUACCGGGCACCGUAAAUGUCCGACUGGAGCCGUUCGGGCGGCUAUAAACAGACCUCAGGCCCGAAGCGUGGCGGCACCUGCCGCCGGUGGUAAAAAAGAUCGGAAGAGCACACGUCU

Variants of: B1
testDetails: aptazyme ON/OFF ratio, guanine; higher = stronger switching; co-transcriptional cleavage with and without guanine
Quick reference: aptazyme ON/OFF ratio of the listed items.
readoutLabel: aptazyme ON/OFF ratio

| mutation | readoutValue |
| --- | --- |
| U7G U8C G9C U10A U11C C12U C13A | 1.36 |
| U7G U8G G9C U11G C12A C13G | 1.23 |
| U7A U8G G9A U10G U11C C12A C13A | 1.2 |
| U8C G9C U11G | 1.03 |
| U7G G9C U10C C12U C13U | 1.34 |
| U7G U10C | 1.5 |
| G9C C12A C13U | 1.35 |
| U7C U8G G9U U10C U11G C12G C13U | 1.08 |
| U7G U8A G9A U10C U11A C12G C13U | 1.12 |
| U8G U10G U11G C12U | 1.44 |
| U7C G9U U10C U11A C12U C13U | 1.16 |
| U7A U8A U10C U11G C12U | 1.45 |
| U8C U11G C12U C13A | 1.08 |
| U7G U8C U10A C13G | 1.08 |
| U7A U8G U11G C12G C13A | 1.15 |
| U7G G9C U10C U11A C12G C13A | 1.13 |
| U8A G9A U10C C12U C13U | 1.2 |
| U7A U8G G9A U10G U11G C12G C13U | 1.53 |
| U7G G9U U10A U11C C12G C13U | 1.27 |
| U8C U11C C12A C13A | 1.24 |
| U7C U8G G9C U10C C12U C13A | 1.05 |
| U8G G9A U10C U11A C12G C13G | 1.07 |
